testDescription: Toxicity liver stage against HepG2, at 10uM
Format: cell-based
Parameters: test concentration 10 uM, cell line HepG2-A16-CD81EGFP
measurementParameters: human, HepG2-A16-CD81EGFP cells; read-out: INHIBITION
Give cytotoxicity at 10 µM for every item shown.
One number for each entry, in %.

>  <compound>
CCC1CN(C(=O)c2ccc(=O)[nH]n2)CCC(=O)N1Cc1ccccc1 (stereo not drawn)

>  <unitOfMeasurement>
%

>  <valueReported>
10.4

$$$$
>  <compound>
CCc1ccc2c(c1)C(CCNC(=O)Cc1ccc(F)cc1)C(=O)N2 (stereo not drawn)

>  <unitOfMeasurement>
%

>  <valueReported>
-44.3

$$$$

Which cytotoxicity at 10 µM is listed for CN1CCCC(c2n[nH]c3ncccc23)C1 (stereo not drawn) ?
-3.35

* * *

testDescription: Toxicity liver stage against HepG2, at 10uM
Assay type: cell-based
Parameters: test concentration 10 uM, cell line HepG2-A16-CD81EGFP
measurementParameters: human, HepG2-A16-CD81EGFP cells; read-out: INHIBITION
endpointName: cytotoxicity at 10 µM (%)
Numbers only, in %.

>  <compound>
Cn1cc(C(=O)CC2CCCN2C(=O)c2ccc(Cl)cn2)cn1 (stereo not drawn)

>  <endpointName>
cytotoxicity at 10 µM

>  <valueReported>
-9.23

$$$$
>  <compound>
CC(NC(N)=O)C(=O)N(C)Cc1cccc(C(F)(F)F)c1 (stereo not drawn)

>  <endpointName>
cytotoxicity at 10 µM

>  <valueReported>
-5.14

$$$$

Batch request: cytotoxicity at 10 µM for each of the following compounds.
1. COc1c(C)cnc(CN(C)C2CCOC3(CCOCC3)C2)c1C (stereo not drawn)
2. Cc1cc(NC(=O)C2CCCN(C(=O)NCC(C)C)C2)ccn1 (stereo not drawn)

1. -0.971
2. -10.5

Your task in this section: give cytotoxicity at 10 µM for each listed record.
1. CCNC(=O)c1ccnc(NCC2COc3cc(OC)ccc3C2)c1 (stereo not drawn)
2. CC(C)CCC(=O)N1CCN(c2ncnc3nc(N)ccc23)CC1
3. COc1ccccc1CCNS(=O)(=O)N1CCOCC1
4. Cc1nc(C)n(CC2CCCN(CCNC(=O)OC(C)(C)C)C2)n1 (stereo not drawn)

[0.145, 8.32, 2.52, 1.08]

I would be grateful if you could provide cytotoxicity at 10 µM for each of the following entries.
1. Cc1ccc(NC(=O)c2nc3c(s2)CCCN3C(=O)C2CC2)cn1
2. COc1ccc(Br)cc1SCCCS(C)(=O)=O
3. COC(=O)CCN1CCCC1c1cccc2c1OCCO2 (stereo not drawn)
4. COc1ccc(CNC(=O)NCC(=O)NC2CC2)c(C(F)(F)F)c1
5. CC1CCN(S(=O)(=O)N2C[C@H](c3ccccc3)[C@@H](N)C2)CC1

1: 10.5; 2: 3.85; 3: 17.7; 4: 6.41; 5: -12.1

* * *

testDescription: Toxicity liver stage against HepG2, at 10uM
Format: cell-based
Set-up: test concentration 10 uM, cell line HepG2-A16-CD81EGFP
measurementParameters: human, HepG2-A16-CD81EGFP cells; read-out: INHIBITION
Record form. Attribute: cytotoxicity at 10 µM. Fill in for each entry.
Numbers only, in %.

Solved entries (count: 4):
>  <molecule>
COc1ccccc1CNC(=O)Cn1nc(-c2ccc(F)cc2)oc1=O

>  <valueReported>
-10.8

$$$$
>  <molecule>
C[C@@H]1CN2C[C@H](O)CC2CN1Cc1ccc2nccnc2c1 (stereo partly drawn)

>  <valueReported>
5.62

$$$$
>  <molecule>
CNc1cc(C(=O)N2CCOC(C(=O)NC3CCCC3)C2)ccn1 (stereo not drawn)

>  <valueReported>
8.16

$$$$
>  <molecule>
O=S1(=O)NCC2(CCCN(Cc3cccnc3)C2)Oc2ncccc21 (stereo not drawn)

>  <valueReported>
6.28

$$$$

Each molecule below has a reported value. Please supply its cytotoxicity at 10 µM.
1. CCN(CC)CCCNC(=O)c1nn(CC)cc1Cl
2. CCCc1cncnc1N1CCC(NCc2ccncc2)CC1
3. COc1cccc(CN2CCC3(CC(Nc4ccncn4)C3)C2)c1F (stereo not drawn)
4. Cc1nn(C)c(N(C)C)c1CNCc1ccc(Cn2cncn2)cc1

[10.8, 6.31, 1.69, -6.94]

For every item in the list below, what is its measured cytotoxicity at 10 µM?
1. COCCCC(=O)NC1(c2cccc(Br)c2)CC1
2. Cc1ccc(C(=O)N2Cc3c(CN4CCCCC4)nn(C)c3C2)cc1C
3. CC(C)N(C)CC(=O)NCc1ccccc1N1CCN(C)CC1
4. CN(C)C(=O)c1cccc(CN2CCOC(Cn3cccn3)C2)c1 (stereo not drawn)

1. 2.11
2. -2.81
3. -7.85
4. -0.29

State recorded cytotoxicity at 10 µM for all listed molecules.
1. CCc1ccc(CN(C)Cc2nc(-c3cnccn3)no2)nc1
2. COC1CCN(c2ccc(F)cc2CN(C)S(C)(=O)=O)CC1
3. COc1ccc(C(=O)C2CCCN(c3cc(N)ncn3)C2)c(C)c1 (stereo not drawn)
4. CCOc1ccccc1NC(=O)NCC(C)(O)CCSC (stereo not drawn)
5. NC(C(=O)N1CCSc2ccccc2C1)c1ccccc1 (stereo not drawn)
6. O=C([C@H]1COC[C@H]2CN(C3CCCC3)C[C@H]21)N1CCCCO1
7. COc1ccc(C(=O)N(Cc2cnn(C)c2)C(C)C)cc1OC(F)F
8. COC(=O)CC1CCCCN1CC(=O)NCCc1ccc(F)cc1 (stereo not drawn)

1. 3.57
2. -12.5
3. 5.31
4. -6.14
5. 4.59
6. -9.47
7. -5.17
8. -8.61

* * *

Answer each item with its documented cytotoxicity at 10 µM.
testDescription: Toxicity liver stage against HepG2, at 10uM
Assay type: cell-based
Parameters: test concentration 10 uM, cell line HepG2-A16-CD81EGFP
measurementParameters: human, HepG2-A16-CD81EGFP cells; read-out: INHIBITION
One number for each entry, in %.

Known results for molecules:
>  <molecule>
N#Cc1ccccc1OCCN1CCn2c(nnc2C2CC2)C1

>  <cytotoxicity at 10 µM, %>
2.94

$$$$
>  <molecule>
Cc1ccc(N2CCC3(CCC(=O)N3)CC2)nn1

>  <cytotoxicity at 10 µM, %>
0.903

$$$$
>  <molecule>
Cn1ccnc1CN1CCN(CC(=O)NCC(F)(F)F)CC1

>  <cytotoxicity at 10 µM, %>
-10

$$$$
>  <molecule>
CCC1CCCCN1S(=O)(=O)c1c(N)noc1C (centres undefined)

>  <cytotoxicity at 10 µM, %>
9.5

$$$$
>  <molecule>
Cc1nn(C)c(N(C)C)c1CNCc1cccc(Cn2cncn2)c1

>  <cytotoxicity at 10 µM, %>
-7.85

$$$$

Value sought for every listed molecule: cytotoxicity at 10 µM.
1. Cc1ccoc1C1=NNC(=CN2CCn3c(C)nnc3C2)O1
2. COCC(=O)N1CCN(C)C(=O)C(Cc2ccccc2-c2cccs2)C1 (centres undefined)
3. Cc1nnc(SCCC(=O)N(C)Cc2ccc(Cl)s2)[nH]1
4. CC(C)(C)NC(=O)CN1CCCN(Cc2cc(C#N)ccc2F)CC1
5. CCSCCNc1cc(C)nc2c(C)c(C)nn12
6. Cc1ccc(N2CC[C@@H]3[C@@H](CO[C@H]3CNC(=O)c3ccco3)C2)nn1
7. CCN(CC)C(CNC(=O)CCc1nc(C(C)C)no1)c1ccco1 (centres undefined)

-16.4
-3.73
14.4
-4.62
5.88
9.43
5.91

Batch request: cytotoxicity at 10 µM for each of the following molecules.
1. Cc1ncsc1C(=O)N1CCN(Cc2ccccc2)CC1C (centres undefined)
2. O=C(CN1CCCCC1=O)N1CCC2(CC1)[C@H](O)C[C@@H]2O
3. CNc1nc(C)c(C(=O)N2C[C@@H](C(=O)O)[C@H](C3CC3)C2)s1

1. -161
2. -1.74
3. 4.29

* * *

testDescription: Toxicity liver stage against HepG2, at 10uM
Format: cell-based
Set-up: test concentration 10 uM, cell line HepG2-A16-CD81EGFP
measurementParameters: human, HepG2-A16-CD81EGFP cells; read-out: INHIBITION
endpointName: cytotoxicity at 10 µM (%)
One number for each entry, in %.

Record excerpt, results attached:
>  <molecule>
CCOc1ccccc1CNC1CCCN(Cc2noc(C)n2)C1 (centres undefined)

>  <valueReported>
-13.1

$$$$
>  <molecule>
Cc1ccc(-c2ccnc(N(C)CC3CCCO3)n2)c(C)n1 (centres undefined)

>  <valueReported>
-2.59

$$$$
>  <molecule>
CCSCCC(=O)NCc1cnn(-c2ccc(F)cc2F)c1

>  <valueReported>
-5.61

$$$$
>  <molecule>
COc1ccc(-c2nnsc2C(=O)N2CCN(C(C)=O)CC2)cc1

>  <valueReported>
-0.145

$$$$

For each listed entry, give its cytotoxicity at 10 µM.
1. Cc1ccc(S(=O)(=O)NCc2cccc(C(=O)N3CCCC3)c2)cc1F
2. Cc1nnc(N2CCCC(CS(N)(=O)=O)C2)c(C#N)c1C (centres undefined)
3. COc1cc(C(=O)NS(=O)(=O)c2cccc(C#N)c2)cc(OC)c1C
4. CN(C)C(=O)C1CCc2nnc(CNC(=O)c3ccc(Cl)cc3Cl)n21 (centres undefined)
5. O=c1ccc2c(n1CCN1CCCC1)CCN(Cc1ccoc1)CC2

1: -14.5; 2: 2.86; 3: -5.02; 4: 7.61; 5: -8.97
